Numbers sourced from FireProtDB (doi:10.1016/0022-2836(92)90562-x).

B1: Ribonuclease, P00648 (parent)
chain: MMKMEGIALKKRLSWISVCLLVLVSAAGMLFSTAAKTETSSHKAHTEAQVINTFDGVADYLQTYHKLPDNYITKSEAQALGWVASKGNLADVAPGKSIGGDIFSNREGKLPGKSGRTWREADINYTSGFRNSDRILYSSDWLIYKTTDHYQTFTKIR

variants of: B1; conditions: Bacillus amyloliquefaciens; pH 6.3; 25 °C; Urea; Fluorescence; MES-NaOH 450 mM; reversible: yes; structure 1BNI; whole UniProt chain shown
Categories are assigned from the measured ddG of mutation (higher = less stable) using these intervals: lower level = under 0.8 kcal/mol, middle level = from 0.8 kcal/mol up to 2 kcal/mol, upper level = 2 kcal/mol and over

Illustrative cases are given below, each with its answer.
alteration: N105D
class: lower level
--
alteration: I98V
class: middle level
--
alteration: V92T
class: upper level

(Q) // return the class label for `I72A`
(A) upper level

(Q) Looking at `L61A` , which class would you pick?
(A) upper level
